procedure.text: resazurin metabolic signal in A549 cells – cell-based, resazurin fluorescence, 24 h, PK04 Diversity Set, profiling panel (AID 1171); note: test concentration not given here
condition.context: A549 viability, higher = more signal, called active from +8 up or from −8 down
Assign labels as follows, please: yes (1) for z-score below 0.1; no (0) for z-score equal to or exceeding 0.1.

Example results:
compound | discrete.label
CC1CC/C=C\[C@H]2OC34C=CCN(c5ccc(Cl)cc5)C(=O)[C@H]3N(CCCCCCO)C(=O)[C@]4(C)C2C(=O)O1 (some centres undefined) | no (0)
COCCCNC(=O)[C@@]1(CCC(=O)OC(C)(C)C)COC(c2ccc(OCCCO)cc2)=N1 | no (0)
CCCC[C@H]1OB(O)C[C@H]2C1=C(COc1ccccc1)C[C@H]1C(=O)C=CC(=O)[C@H]12 | no (0)
CCCCCC1=C2CNC(CC(C)C)(C(=O)OC)C=C2C(C)C1=O (centres undefined) | yes (1)

Then there is this compound:
Q: Please state whether z-score is below 0.1 for CCCC=C(CCC)[C@@H](NC(=O)OCC(C)C)c1ccc(C(=O)OC)cc1
A: no (0)
